Molecular target: Norepinephrine transporter (Rattus norvegicus, UniProt Q9WTR4)
Sequence (Q9WTR4 whole entry): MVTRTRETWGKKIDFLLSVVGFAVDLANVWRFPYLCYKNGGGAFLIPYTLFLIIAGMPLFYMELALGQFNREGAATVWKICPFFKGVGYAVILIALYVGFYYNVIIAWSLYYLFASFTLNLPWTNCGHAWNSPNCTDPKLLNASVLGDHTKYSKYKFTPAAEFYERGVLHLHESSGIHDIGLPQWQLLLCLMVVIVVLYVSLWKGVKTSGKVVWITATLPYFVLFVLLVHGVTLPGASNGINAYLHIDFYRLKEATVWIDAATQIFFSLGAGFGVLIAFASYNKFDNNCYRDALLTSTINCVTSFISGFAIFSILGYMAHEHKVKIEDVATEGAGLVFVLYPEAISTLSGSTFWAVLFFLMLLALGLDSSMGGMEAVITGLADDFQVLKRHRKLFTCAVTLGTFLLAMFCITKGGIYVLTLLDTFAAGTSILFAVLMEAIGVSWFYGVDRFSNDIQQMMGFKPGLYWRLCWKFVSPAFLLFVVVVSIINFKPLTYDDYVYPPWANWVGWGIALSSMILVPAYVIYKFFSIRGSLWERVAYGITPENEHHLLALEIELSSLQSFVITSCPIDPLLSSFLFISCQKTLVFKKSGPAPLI
Experiment: Displacement of [3H]nisoxetine from norepinephrine transporter of rat cerebral cortex
Assay type: tissue-based
Below, each of the molecules is paired with its reported Ki value.

Please review the following examples before continuing.
# molecule, measured target, reported measurement
records = [
    ("COC(=O)C1C(c2ccc(-c3cscc3Br)cc2)CC2CCC1N2C (stereo not drawn)", "Norepinephrine transporter (Rattus norvegicus, UniProt Q9WTR4)", "> 10 µM"),
    ("COC(=O)C1C(c2ccc(-c3cc([N+](=O)[O-])c([N+](=O)[O-])s3)cc2)CC2CCC1N2C (stereo not drawn)", "Norepinephrine transporter (Rattus norvegicus, UniProt Q9WTR4)", "> 10 µM"),
]

Below: the item to evaluate.
Write down the reported Ki (system: Norepinephrine transporter (Rattus norvegicus, UniProt Q9WTR4)) of COC(=O)C1C(c2ccc(-c3ccc(N)s3)cc2)CC2CCC1N2C (stereo not drawn)
> 30 µM

====

Below, each of the compounds is paired with its reported Ratio value.
Target: Monoamine transporters; Norepinephrine & serotonin (Rattus norvegicus) (UniProt P31652+Q9WTR4)
Assay: Selectivity for inhibition of serotonin and norepinephrine transporters
Format: protein assay

Please review the following examples before continuing.
# compound, reported measurement
records = [
    ("COC(=O)C1C(c2ccc(-c3ccc(N)s3)cc2)CC2CCC1N2C (stereo not drawn)", "> 464"),
    ("COC(=O)C1C(c2ccc(-c3cc([N+](=O)[O-])c([N+](=O)[O-])s3)cc2)CC2CCC1N2C (stereo not drawn)", "> 2"),
]

Note Ratio for the compound shown: COC(=O)C1C(c2ccc(-c3ccc(Cl)s3)cc2)CC2CCC1N2C (stereo not drawn)
486

Reference source: ChEMBL document CHEMBL1144325
